Test system: Aorta
Test: Vasodilating activity in Sprague-Dawley rat aortic rings assessed as reduction in phenylephrine-induced contractions
Assay type: functional, tissue-based
Listing of recorded EC50 by entry.

Previously resolved entries follow.
Cc1ccccc1COc1nc2c(cc1-c1nc(N)cc(N)n1)c(C)nn2-c1ccccc1 ... 290 nM
CC(=O)Nc1c(N)nc(-c2cc3c(C)nn(-c4ccccc4)c3nc2OCc2ccccc2F)nc1N ... 930 nM
Cc1nn(-c2ccccc2)c2nc(OCc3ccccc3F)c(-c3nc(N)c(N4CCCC4)c(N)n3)cc12 ... 12700 nM

Task item: Looking for the measured EC50 of Cc1nn(-c2ccccc2)c2nc(OCc3ccccc3F)c(-c3nc(N)c(N4CCCCC4)c(N)n3)cc12 , can you help?
Reply: 790 nM

Task item: If you can, please state the reported EC50 value of Cc1nn(-c2ccccc2)c2nc(OCc3ccccc3F)c(-c3nc(N)c(N(C)C)c(N)n3)cc12 .
Reply: 1100 nM
